- assaySystem: T1, 4H3606-AA
- T1 chain: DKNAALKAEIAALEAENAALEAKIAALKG
- protocolSummary: two-hybrid library CCmax;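 note: natural log of median RNA to DNA barcode read ratio; higher means stronger binding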
- appliedConditions: mean of both orientations
measuredQuantity: interaction score

DKIAALEAKIAALKAENAALKAEIAALEG [4H2393-AA]
2.32

[P] DKIAALKAEIAALEAKNAALKAEIAALEG [4H2617-AA]
[Q] DEIAALEAEIAALEAENAALKAKNAALKG [4H32-AA]
Q) Please tell me which of the two, P or Q , has the higher reported interaction score value. Kindly state the label of the option you pick.
A) P
